target: plasma purified human complement protein C3 (human) (UniProt P01024); test: cell-based or functional assay
Sequence (P01024 23-667, chain 1 of 2): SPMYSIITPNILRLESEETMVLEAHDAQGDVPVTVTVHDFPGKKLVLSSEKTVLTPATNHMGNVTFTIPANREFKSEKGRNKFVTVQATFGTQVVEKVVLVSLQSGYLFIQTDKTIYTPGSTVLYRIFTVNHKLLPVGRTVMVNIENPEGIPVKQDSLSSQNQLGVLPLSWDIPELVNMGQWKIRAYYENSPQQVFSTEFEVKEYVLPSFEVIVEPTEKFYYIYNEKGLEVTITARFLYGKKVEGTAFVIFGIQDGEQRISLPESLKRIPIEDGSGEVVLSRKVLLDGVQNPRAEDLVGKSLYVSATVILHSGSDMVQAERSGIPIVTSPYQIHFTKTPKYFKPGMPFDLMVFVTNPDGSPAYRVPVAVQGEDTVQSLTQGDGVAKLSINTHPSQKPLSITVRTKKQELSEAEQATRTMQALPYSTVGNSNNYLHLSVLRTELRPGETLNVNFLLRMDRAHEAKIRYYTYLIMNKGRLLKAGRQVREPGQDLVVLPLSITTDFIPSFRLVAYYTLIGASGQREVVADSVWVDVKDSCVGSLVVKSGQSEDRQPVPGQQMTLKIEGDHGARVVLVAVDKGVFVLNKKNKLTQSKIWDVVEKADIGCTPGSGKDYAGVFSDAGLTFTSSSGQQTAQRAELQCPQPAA
Sequence (P01024 672-1663, chain 2 of 2): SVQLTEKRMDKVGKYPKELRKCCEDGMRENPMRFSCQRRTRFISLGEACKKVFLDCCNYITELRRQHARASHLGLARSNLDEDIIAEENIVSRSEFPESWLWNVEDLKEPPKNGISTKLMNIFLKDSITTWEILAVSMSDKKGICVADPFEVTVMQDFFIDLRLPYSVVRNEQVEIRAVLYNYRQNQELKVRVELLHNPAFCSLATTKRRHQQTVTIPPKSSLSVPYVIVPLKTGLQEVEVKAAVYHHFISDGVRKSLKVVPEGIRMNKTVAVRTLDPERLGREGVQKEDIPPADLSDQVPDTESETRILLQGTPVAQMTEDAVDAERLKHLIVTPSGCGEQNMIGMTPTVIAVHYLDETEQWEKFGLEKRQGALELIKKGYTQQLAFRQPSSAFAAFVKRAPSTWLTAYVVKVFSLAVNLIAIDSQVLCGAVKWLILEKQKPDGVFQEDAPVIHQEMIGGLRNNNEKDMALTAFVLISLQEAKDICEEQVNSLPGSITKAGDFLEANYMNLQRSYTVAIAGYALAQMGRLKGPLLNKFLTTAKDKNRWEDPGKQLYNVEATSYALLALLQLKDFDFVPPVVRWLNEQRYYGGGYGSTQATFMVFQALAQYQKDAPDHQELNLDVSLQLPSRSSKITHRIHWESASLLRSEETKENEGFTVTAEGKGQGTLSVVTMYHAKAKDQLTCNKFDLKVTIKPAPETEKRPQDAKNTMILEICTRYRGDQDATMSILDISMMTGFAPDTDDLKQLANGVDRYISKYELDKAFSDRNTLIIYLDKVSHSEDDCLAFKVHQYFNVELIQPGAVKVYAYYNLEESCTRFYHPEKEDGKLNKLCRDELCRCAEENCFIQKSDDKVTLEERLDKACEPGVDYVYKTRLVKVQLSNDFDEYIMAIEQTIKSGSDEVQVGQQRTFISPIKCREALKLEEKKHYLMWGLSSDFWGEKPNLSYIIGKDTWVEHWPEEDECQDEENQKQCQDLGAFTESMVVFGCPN
Listing of recorded EC50 of hC3 cleavage by entry.

| binder | EC50 of hC3 cleavage |
| --- | --- |
| MTSP-1 E24K/ins97aE/F97T/T98G/F99L/C122S/A152S/Q175L/Q192D (enzyme) VVGGTDADKGEWPWQVSLHALGQGHICGASLISPNWLVSAAHCYIDDRGFRYSDPTQWTAFLGLHDQSQRSAPGVQERRLKRIISHPFFNDTEGLDYDIALLELEKPAEYSSMVRPISLPDASHVFPAGKAIWVTGWGHTQYGGTGSLILQKGEIRVINQTTCENLLPQLITPRMMCVGFLSGGVDSCDGDSGGPLSSVEADGRIFQAGVVSWGDGCAQRNKPGVYTRLPLFRDWIKENTGV | 291 nM |
| MTSP-1 Q38R/I41S/D60bH/F60eV/ins97aE/F97T/T98G/F99L/C122S/G151N/Q175L/Q192E (enzyme) VVGGTDADEGEWPWQVSLHALGRGHSCGASLISPNWLVSAAHCYIDHRGVRYSDPTQWTAFLGLHDQSQRSAPGVQERRLKRIISHPFFNDTEGLDYDIALLELEKPAEYSSMVRPISLPDASHVFPAGKAIWVTGWGHTQYGGTNALILQKGEIRVINQTTCENLLPQLITPRMMCVGFLSGGVDSCEGDSGGPLSSVEADGRIFQAGVVSWGDGCAQRNKPGVYTRLPLFRDWIKENTGV | 22.5 nM |
| MTSP-1 Q38L/I41T/D60bR/F60eL/Y60gM/F97T/ins97aE/T98G/F99L/C122S/G151N/Q175L/Q192G (enzyme) VVGGTDADEGEWPWQVSLHALGLGHTCGASLISPNWLVSAAHCYIDRRGLRMSDPTQWTAFLGLHDQSQRSAPGVQERRLKRIISHPFFNDTEGLDYDIALLELEKPAEYSSMVRPISLPDASHVFPAGKAIWVTGWGHTQYGGTNALILQKGEIRVINQTTCENLLPQLITPRMMCVGFLSGGVDSCGGDSGGPLSSVEADGRIFQAGVVSWGDGCAQRNKPGVYTRLPLFRDWIKENTGV | 23.7 nM |
